# Test system: DNA helicase (UniProt P0ACB1)
# Sequence (P0ACB1 whole entry): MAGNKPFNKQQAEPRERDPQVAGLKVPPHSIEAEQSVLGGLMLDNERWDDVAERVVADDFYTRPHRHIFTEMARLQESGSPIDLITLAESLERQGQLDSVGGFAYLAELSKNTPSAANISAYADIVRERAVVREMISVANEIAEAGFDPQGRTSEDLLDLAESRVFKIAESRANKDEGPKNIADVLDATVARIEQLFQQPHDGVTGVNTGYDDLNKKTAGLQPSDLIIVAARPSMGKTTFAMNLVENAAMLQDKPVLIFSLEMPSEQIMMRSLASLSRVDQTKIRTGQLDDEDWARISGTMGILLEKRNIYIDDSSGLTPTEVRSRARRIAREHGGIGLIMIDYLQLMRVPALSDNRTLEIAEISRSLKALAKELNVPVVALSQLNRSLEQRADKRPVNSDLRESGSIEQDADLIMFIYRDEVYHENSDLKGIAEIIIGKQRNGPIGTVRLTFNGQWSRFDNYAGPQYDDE
# Assay info: relative enzymatic activity vs untreated control (fraction); higher = less inhibition
# Experimental context: 100 µM; incubation time: 2 h at 37 C
Exercise: state measured relative enzymatic activity for each of the compounds provided.
One number for each entry.

# count of solved cases: 3
# Smiles structure, relative enzymatic activity
data = [
    ("O=[N+]([O-])c1ccc(O)c2ncccc12", 0.584),
    ("O=c1[nH]c(=O)n([C@@H]2C[C@@H](O)[C@@H](CO)O2)cc1F", 0.591),
    ("CC(=O)On1cc(F)c(=O)[nH]c1=O", 0.603),
]

Please examine the following record next.
Param item = CC(C)CCCC(=O)N[C@@H](CCNCS(=O)(=O)O)C(=O)N[C@H](C(=O)N[C@@H](CCNCS(=O)(=O)O)C(=O)N[C@H]1CCNC(=O)[C@H]([C@@H](C)O)NC(=O)[C@H](CCNCS(=O)(=O)O)NC(=O)[C@H](CCNCS(=O)(=O)O)NC(=O)[C@H](CC(C)C)NC(=O)[C@H](CC(C)C)NC(=O)[C@H](CCNCS(=O)(=O)O)NC1=O)[C@@H](C)O ; retrieve measured relative enzymatic activity.
0.608

###

# Test system: DNA ligase (UniProt B1XA82)
# Sequence (B1XA82 whole entry): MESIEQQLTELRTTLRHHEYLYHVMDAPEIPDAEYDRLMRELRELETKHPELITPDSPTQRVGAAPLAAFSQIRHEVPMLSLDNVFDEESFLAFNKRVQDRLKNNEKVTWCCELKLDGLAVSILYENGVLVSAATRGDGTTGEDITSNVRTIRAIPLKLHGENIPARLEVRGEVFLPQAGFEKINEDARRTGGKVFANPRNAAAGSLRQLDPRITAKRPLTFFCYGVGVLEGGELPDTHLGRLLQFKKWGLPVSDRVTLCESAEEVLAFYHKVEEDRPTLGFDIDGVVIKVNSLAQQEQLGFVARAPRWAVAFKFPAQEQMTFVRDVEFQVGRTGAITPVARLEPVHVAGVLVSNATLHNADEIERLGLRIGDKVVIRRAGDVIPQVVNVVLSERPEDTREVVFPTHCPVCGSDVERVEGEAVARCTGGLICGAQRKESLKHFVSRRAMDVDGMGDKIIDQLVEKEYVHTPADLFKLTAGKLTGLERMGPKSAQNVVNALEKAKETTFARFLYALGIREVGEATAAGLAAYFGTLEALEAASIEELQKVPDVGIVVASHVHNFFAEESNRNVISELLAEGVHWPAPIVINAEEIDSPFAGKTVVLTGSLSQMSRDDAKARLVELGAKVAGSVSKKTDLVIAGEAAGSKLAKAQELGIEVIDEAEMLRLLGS
# Assay info: relative enzymatic activity vs untreated control (fraction); higher = less inhibition
# Experimental context: 100 µM; incubation time: 2 h at 37 C
For each record, write down the corresponding relative enzymatic activity.
Answers are plain numbers.

# Compound, Test system, relative enzymatic activity
records = [
    ("CN(C)c1ccc(O)c2c1CC1CC3C(N(C)C)C(O)=C(C(N)=O)C(=O)C3(O)C(O)=C1C2=O.Cl (configuration not stated)", "DNA ligase (UniProt B1XA82)", 0.831),
    ("CC(C)(O/N=C(\\C(=O)N[C@@H]1C(=O)N2C(C(=O)O)=C(C[n+]3ccccc3)CS[C@H]12)c1csc(N)n1)C(=O)O", "DNA ligase (UniProt B1XA82)", 0.86),
    ("O=C1CN(/N=C/c2ccc([N+](=O)[O-])o2)C(=O)N1", "DNA ligase (UniProt B1XA82)", 0.855),
    ("NC[C@H]1O[C@H](O[C@H]2[C@H](O)[C@@H](O[C@H]3O[C@H](CO)[C@@H](O)[C@H](N)[C@H]3O)[C@H](N)C[C@@H]2N)[C@H](N)C[C@@H]1O", "DNA ligase (UniProt B1XA82)", 0.91),
    ("CCCCCCCCCCCCC[N+](C)(C)Cc1ccccc1.O.[Cl-]", "DNA ligase (UniProt B1XA82)", 0.811),
]

Your task in this section: give relative enzymatic activity for each listed record.
1. O=C([O-])C1=C(CSc2nnnn2CS(=O)(=O)[O-])CSC2C(NC(=O)C(O)c3ccccc3)C(=O)N12.[Na+].[Na+] (configuration not stated)
2. CON=C(C(=O)N[C@@H]1C(=O)N2C(C(=O)OCOC(=O)C(C)(C)C)=C(C=Cc3scnc3C)CS[C@H]12)c1csc(N)n1

1.26
0.899

###

# Test system: DNA primase (UniProt P0ABS7)
# Sequence (P0ABS7 whole entry): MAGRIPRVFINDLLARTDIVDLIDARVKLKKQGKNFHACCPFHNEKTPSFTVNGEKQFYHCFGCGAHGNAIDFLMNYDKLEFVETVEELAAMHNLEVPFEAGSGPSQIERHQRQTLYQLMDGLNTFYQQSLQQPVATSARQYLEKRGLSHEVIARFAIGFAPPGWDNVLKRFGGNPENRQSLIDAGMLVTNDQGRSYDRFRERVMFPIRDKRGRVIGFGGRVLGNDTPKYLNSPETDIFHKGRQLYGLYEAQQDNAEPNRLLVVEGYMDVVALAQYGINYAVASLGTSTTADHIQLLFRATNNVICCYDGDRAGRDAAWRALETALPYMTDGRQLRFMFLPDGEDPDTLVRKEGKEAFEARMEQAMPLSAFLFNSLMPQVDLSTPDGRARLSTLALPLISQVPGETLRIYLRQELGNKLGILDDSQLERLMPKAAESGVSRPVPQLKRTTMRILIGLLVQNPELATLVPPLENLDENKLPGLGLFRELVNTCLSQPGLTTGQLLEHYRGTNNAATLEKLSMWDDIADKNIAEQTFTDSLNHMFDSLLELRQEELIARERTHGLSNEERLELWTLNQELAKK
# Assay info: relative enzymatic activity vs untreated control (fraction); higher = less inhibition
# Experimental context: 100 µM; incubation time: 2 h at 37 C
Ranges used to classify relative enzymatic activity: low bracket: < 0.7; middle bracket: ≥ 0.7 and < 0.8; high bracket: ≥ 0.8

Band of Oc1c(Cl)cc(Cl)c(Cl)c1Cc1c(O)c(Cl)cc(Cl)c1Cl ?
low bracket

Next up: CC[C@H]1OC(=O)[C@H](C)[C@@H](O[C@H]2C[C@@](C)(OC)[C@@H](O)[C@H](C)O2)[C@H](C)[C@@H](O[C@@H]2O[C@H](C)C[C@H](N(C)C)[C@H]2O)[C@](C)(OC)C[C@@H](C)C(=O)[C@H](C)[C@@H](O)[C@]1(C)O
high bracket
